The values you see were collected from patent US20250346931A1.

Below: a set of entries, each annotated with reported pIC50.
# System: rumen-derived microbial communities
# TEST DESCRIPTION: Inhibition of methane production in rumen-derived microbial culture
# Assay type: cell-based, dairy cattle
# PROTOCOL CONDITIONS: Bos taurus; rumen-derived microbial communities; read-out: concentration giving 50% suppression of methane production
pIC50: −log10 of the molar value.
ENDPOINT LABEL: pIC50

BrCBr [dibromomethane, reference compound]: 6.82
BrC(Br)Br [bromoform, reference compound]: 6.70
